Tested on: HEK-293T
EXPERIMENTAL PROTOCOL: Multiplex assay against HEK293T
Format: toxicity, cell-based
EXPERIMENTAL SETUP: human, 12 h, 1 µM, compound concentration 1 uM, replicate 2
MEASURE NAME: Population Fragmented Nuclei (%)

INPUT: Supply measured Population Fragmented Nuclei (%) of N#CCNC(=O)c1ccc(-c2ccnc(Nc3ccc(N4CCOCC4)cc3)n2)cc1 [MOMELOTINIB] in your reply.
OUTPUT: 9%

More entries:
INPUT: Name the recorded Population Fragmented Nuclei (%) of the compound listed here: Oc1cccc(-c2nc(N3CCOCC3)c3oc4ncccc4c3n2)c1 [PI-103]
OUTPUT: 10%

INPUT: Quick one: give measured Population Fragmented Nuclei (%) for CCCCCNC(=N)N/N=C/c1c[nH]c2ccc(OC)cc12.O=C(O)/C=C\C(=O)O [TEGASEROD MALEATE]
OUTPUT: 4%

INPUT: Give the measured Population Fragmented Nuclei (%) for Cl.Cn1c2c(c3ccc(Cl)c(Cl)c31)C(C#N)C1(CCNCC1)NC2=O (centres undefined)
OUTPUT: 6%

INPUT: State its Population Fragmented Nuclei (%) for this compound: CCOC(=O)CCNc1cc(N2CCc3ccccc3CC2)nc(-c2ccccn2)n1
OUTPUT: 8%

INPUT: For the compound CC(Cc1ccc(O)c(O)c1)C(C)Cc1ccc(O)c(O)c1 (centres undefined) [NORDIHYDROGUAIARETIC ACID] , give its reported Population Fragmented Nuclei (%).
OUTPUT: 6%

INPUT: Please look at this compound and report its Population Fragmented Nuclei (%): CCOc1ccn(-c2ccc(F)cc2)c(=O)c1C(=O)Nc1ccc(Oc2ccnc(N)c2Cl)c(F)c1 [BMS-777607]
OUTPUT: 5%

INPUT: State its Population Fragmented Nuclei (%) for this compound: CCCCN(CC)c1nc(C)nc2c1c(C)cn2-c1c(C)cc(C)cc1C.Cl
OUTPUT: 5%

INPUT: Assign Population Fragmented Nuclei (%) to the following record: CC[C@@H]1C(=O)N(C)c2cnc(Nc3ccc(C(=O)NC4CCN(C)CC4)cc3OC)nc2N1C1CCCC1 [BI-2536]
OUTPUT: 3%

INPUT: State its Population Fragmented Nuclei (%) for this compound: CC(/C=C1\SC(=S)N(CCCC(=O)Nc2ccc(C(=O)O)c(O)c2)C1=O)=C\c1ccccc1
OUTPUT: 2%

INPUT: Look up Population Fragmented Nuclei (%) of CC(C)[C@H](CO)Nc1nc(Nc2cccc(Cl)c2)c2ncn(C(C)C)c2n1 [PURVALANOLA] and report it.
OUTPUT: 6%

INPUT: Supply measured Population Fragmented Nuclei (%) of CN1C(=O)[C@@H](NC(=O)c2cc3ccccc3[nH]2)N=C(c2ccccc2)c2ccccc21 [DEVAZEPIDE] in your reply.
OUTPUT: 6%

INPUT: Report Population Fragmented Nuclei (%), nothing else, for this compound: NC(=O)c1ccc2nc(-c3ccc(C4(N)CCC4)cc3)c(-c3ccccc3)n2n1 [BAY-1125976]
OUTPUT: 4%

INPUT: Specify Population Fragmented Nuclei (%) for C=CC(=O)Nc1cc(-n2c(=O)ccc3cnc4ccc(-c5ccc(NS(C)(=O)=O)cc5)cc4c32)ccc1C and stop.
OUTPUT: 13%

INPUT: Give the measured Population Fragmented Nuclei (%) for N#Cc1cccc(C(=O)Nc2cc(-c3ccccc3)nn2-c2ccccc2)c1
OUTPUT: 8%

INPUT: Answer with the recorded Population Fragmented Nuclei (%) for the compound listed here: Cl.NC[C@@H]1O[C@H](C23CC4CC(CC(C4)C2)C3)Cc2c1ccc(O)c2O
OUTPUT: 3%

INPUT: Give the value of Population Fragmented Nuclei (%) reported for the following: CN(c1cc(C(F)(F)F)nc(OCCC(=O)O)n1)c1cccc2c1CCC2
OUTPUT: 4%

INPUT: Respond only with Population Fragmented Nuclei (%) recorded for Cc1ccc(NC(=O)Nc2cc(C(F)(F)F)ccc2F)cc1Nc1ccc2c(c1)NC(=O)/C2=C\c1ccc[nH]1
OUTPUT: 2%

INPUT: Input CC[C@H](Nc1ncnc2[nH]cnc12)c1nc2cccc(F)c2c(=O)n1-c1ccccc1 [IDELALISIB] , output reported Population Fragmented Nuclei (%).
OUTPUT: 5%
